Quick record of pKi values for Disintegrin and metalloproteinase domain-containing protein 17 (Homo sapiens).
Schema: pKi number; meaning minus log10 of the concentration expressed in molar units.

// solved cases for pKi follow
> print(dat)
                                   compound  observed
1  COC(=O)[C@@]1(Cc2ccc(OCc3ccccc3)cc2)C[C@@H]1C(=O)NO (racemic)      6.10
2  Cc1cc(COc2cccc([C@@]3(C(=O)NCc4ccccc4)C[C@H]3C(=O)NO)c2)c2ccccc2n1      6.85
3  COC(=O)[C@]1(c2cccc(OCc3ccc(Cl)cc3)c2)C[C@H]1C(=O)NO      7.30
4  Cc1cc(COc2cccc([C@@]3(C(=O)N4CCN(C)CC4)C[C@H]3C(=O)NO)c2)c2ccccc2n1      5.30
5  COC(=O)[C@@]1(Cc2ccc(OCc3ccc(Cl)c(Cl)c3)cc2)C[C@@H]1C(=O)NO      6.89
6  COC(=O)C1(Cc2ccc(OCc3ccccc3)cc2)CC1C(=O)NO (racemic)      6.10

Please turn your attention to the following entry.
Retrieve pKi on Disintegrin and metalloproteinase domain-containing protein 17 (Homo sapiens); query CCOC(=O)C1(c2ccc(OCc3ccccc3)cc2)CC1C(=O)NO (racemic)
Sequence (P78536 whole entry, the tested form may be a part): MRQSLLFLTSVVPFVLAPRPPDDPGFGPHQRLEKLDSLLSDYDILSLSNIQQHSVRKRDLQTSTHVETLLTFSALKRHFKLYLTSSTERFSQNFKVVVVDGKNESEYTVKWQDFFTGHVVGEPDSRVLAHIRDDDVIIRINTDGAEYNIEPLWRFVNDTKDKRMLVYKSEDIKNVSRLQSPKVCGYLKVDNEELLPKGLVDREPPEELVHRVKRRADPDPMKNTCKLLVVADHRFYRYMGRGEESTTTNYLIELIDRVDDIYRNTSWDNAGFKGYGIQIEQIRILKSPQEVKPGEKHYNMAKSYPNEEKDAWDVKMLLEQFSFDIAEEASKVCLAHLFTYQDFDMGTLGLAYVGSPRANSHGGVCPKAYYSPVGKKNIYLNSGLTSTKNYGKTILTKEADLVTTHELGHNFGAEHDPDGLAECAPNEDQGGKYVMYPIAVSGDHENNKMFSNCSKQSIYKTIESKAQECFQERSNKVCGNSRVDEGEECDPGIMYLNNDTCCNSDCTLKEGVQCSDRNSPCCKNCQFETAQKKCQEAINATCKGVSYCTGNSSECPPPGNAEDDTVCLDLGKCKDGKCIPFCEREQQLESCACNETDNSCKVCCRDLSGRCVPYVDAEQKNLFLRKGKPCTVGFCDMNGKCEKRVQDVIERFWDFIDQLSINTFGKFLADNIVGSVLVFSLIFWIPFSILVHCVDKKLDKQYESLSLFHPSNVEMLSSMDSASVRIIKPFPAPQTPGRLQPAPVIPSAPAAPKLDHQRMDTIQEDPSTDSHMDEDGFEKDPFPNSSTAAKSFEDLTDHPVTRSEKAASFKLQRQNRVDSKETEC
4.70
